molecular target: cJun (Homo sapiens, UniProt P05412, S292Y); assay: Isothermal titration calorimetry, Example 1 (MicroCal VP-ITC); type: binding; set-up: The same 60 amino acid c-Jun bZIP construct was used for all experiments; His-SUMO (N, cleaved yes); made in house; host or cells: E. coli; conditions: peptide 10 μM injected into cJun 1 μM, single site model; listed as HingeW
Sequence (P05412 with tags, fused parts or gaps S292Y): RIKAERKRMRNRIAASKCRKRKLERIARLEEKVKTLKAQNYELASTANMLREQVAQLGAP
OBSERVABLE: Kd (nM)
Please give a number only; it is taken to be in nM.

Kd measured on HingeW (Recombinant, capped (MAS at the N-terminus, GAP at the C-terminus) and C-terminally 6xHis-tagged, 69 amino acids; also called peptide 1) peptide: MASLEQRAEELARENEELEKEAEELVVEEDVLEEEIEQLEERNYALRKEIEDLQKQLEKLGAPHHHHHH = 14
